// provenance: patent US20130309233A1

Reported values of IC50 (M), inhibition of EGF-stimulated EGFR auto-phosphorylation in A549 cells for individual entries
Target: EGFR expressed on the surface of cells (A431, A549, MCF7 and other EGFR-expressing cell lines) (human, UniProt P00533 25-1210)
Assay: cell-based or functional assay
parameterMeasured: IC50 (M), inhibition of EGF-stimulated EGFR auto-phosphorylation in A549 cells

binder: D2GC1 (antibody, V domains shown) VH: EVQLVESGGGVVQPGRSLRLSCAASGFIFHHYAMHWVRQAPGKGLEWVAHISPDGSSKFYADSVKGRFTVSRDNSKNTLYLQMNSLRAEDTAVYYCARFTEVLYYGADLWGQGTLVTVSS VL: QSVLTQPPSVSEAPRQRVSISCSGSSSNIGNNAVNWYQQLPGKAPKLLIYYDDLLPSGVSDRFSGSKSGTSASLAISGLQSEDEADYYCAAWDDSLKGYVFGTGTKVTVL
reported: 2e-10
--
binder: D2 GB8 (antibody, V domains shown) VH: EVQLVESGGGVVQPGRSLRLSCAASGFIFHHYAMHWVRQAPGKGLEWVAHISPDGSYKFYADSVKGRFTVSRDNSKNTLYLQMNSLRAEDTAVYYCARFTEVLYYGADIWGQGTLVTVSS VL: QSVLTQPPSVSEAPRQRVSISCSGSSSNIGNNAVNWYQQLPGKAPKLLIYYDDLLPSGVSNRFSGSKSGTSASLAISGLQSEDEADYYCAAWDDSLKGYVFGTGTKVTVL
reported: 8.6e-10
--
binder: D2GA5 (antibody, V domains shown) VH: EVQLVESGGGVVQPGRSLRLSCAASGFIFHHYAMHWVRQAPGKGLEWVAHISIDGSSKFYADSVKGRFTVSRDNSKNTLYLQMNSLRAEDTAVYYCARFTEVLYYGADLWGQGTLVTVSS VL: QSVLTQPPSVSEAPRQRVSISCSGSSSNIGNNAVNWYQQLPGKAPKLLIYYDDLLPSGVSDRFSGSKSGTSASLAISGLQSEDEADYYCAAWDDSLKGYVFGTGTKVTVL
reported: 2.3e-10
